# TGT: CBX6 chromodomain (CBX6 ChD), N-terminal His6-tagged recombinant protein (UniProt O95503)
# Sequence (O95503 8-65 limits assumed): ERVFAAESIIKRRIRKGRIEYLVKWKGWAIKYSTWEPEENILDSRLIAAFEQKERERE
# PROTOCOL_NOTES: competitive fluorescence polarization, displacement of FITC-labelled probe
pIC50: −log10 of the molar value. Square brackets hold non-standard residues; d marks the D form. Ends that are not written are not given here. Tyr(3-Cl) = N[C@@H](Cc1ccc(O)c(Cl)c1)C(=O)O
PROPERTY_NAME: pIC50

BINDER	MEAS_VALUE
[Tyr(3-Cl)]PIK(trimethyl)S-NH2 (also: N-terminal acylation, acyl group not given here) [KED98 (PP)]	4.47
